Biological target: Serine/threonine-protein kinase 17B (Homo sapiens)
Sequence (whole entry): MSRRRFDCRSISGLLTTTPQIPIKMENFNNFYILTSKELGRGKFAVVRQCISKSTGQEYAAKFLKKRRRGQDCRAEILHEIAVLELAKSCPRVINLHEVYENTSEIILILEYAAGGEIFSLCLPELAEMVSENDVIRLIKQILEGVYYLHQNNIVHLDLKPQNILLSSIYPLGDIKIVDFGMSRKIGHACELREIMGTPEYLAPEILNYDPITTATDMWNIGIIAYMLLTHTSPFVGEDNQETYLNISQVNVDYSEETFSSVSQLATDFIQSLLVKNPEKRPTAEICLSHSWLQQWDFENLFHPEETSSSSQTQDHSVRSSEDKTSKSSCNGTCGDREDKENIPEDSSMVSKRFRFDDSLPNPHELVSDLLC
Assay: Binding affinity to DRAK2 assessed as change in thermal denaturation at 10 uM by thermal stability shift assay
# label = Y if ΔTm < 3 °C else N

Worked examples follow.
Cn1c2c(c3ccccc31)C(C#N)C(C)(C)NC2=O (configuration not stated) | Y
Cn1c2c(c3ccc(Cl)c(Cl)c31)C(C#N)C1(CCOCC1)NC2=O (configuration not stated) | Y
Cn1c2c(Cl)c(Cl)ccc2c2cn[nH]c(=O)c21 | Y
Cn1c2c(c3ccc(Cl)c(Cl)c31)C(C#N)C1(CCCC1)NC2=O (configuration not stated) | Y
Cn1c2c(c3ccc(Cl)c(Cl)c31)C(C#N)C(C)(C)NC2=O (configuration not stated) | N
N#CC1c2c([nH]c3c(Cl)c(Cl)ccc23)C(=O)NC12CCCCC2 (racemic) | Y
CCC1(CC)NC(=O)c2c(c3ccc(Cl)c(Cl)c3n2C)C1C#N (configuration not stated) | Y
CN1CCC2(CC1)NC(=O)c1c(c3ccc(Cl)c(Cl)c3n1C)C2C#N (racemic) | Y
CC1(C)NC(=O)c2[nH]c3c(Cl)c(Cl)ccc3c2C1C#N (configuration not stated) | Y
CCN1CCC2(CC1)NC(=O)c1c(c3ccc(Cl)c(Cl)c3n1C)C2C#N (racemic) | Y

Exercise: For Cn1c2c(Cl)c(Cl)ccc2c2cc[nH]c(=O)c21 , is the recorded ΔTm below the cut-off of 3 °C?
Key: N

Exercise: Bench note: check whether Cn1c2c(c3ccc(Cl)c(Cl)c31)C(CN)C(C)(C)NC2=O (racemic) shows ΔTm below 3 °C
Key: N

---

Molecular target: Phosphatidylinositol 4,5-bisphosphate 3-kinase catalytic subunit gamma isoform (Homo sapiens, UniProt P48736)
Sequence (P48736 whole entry, canonical isoform): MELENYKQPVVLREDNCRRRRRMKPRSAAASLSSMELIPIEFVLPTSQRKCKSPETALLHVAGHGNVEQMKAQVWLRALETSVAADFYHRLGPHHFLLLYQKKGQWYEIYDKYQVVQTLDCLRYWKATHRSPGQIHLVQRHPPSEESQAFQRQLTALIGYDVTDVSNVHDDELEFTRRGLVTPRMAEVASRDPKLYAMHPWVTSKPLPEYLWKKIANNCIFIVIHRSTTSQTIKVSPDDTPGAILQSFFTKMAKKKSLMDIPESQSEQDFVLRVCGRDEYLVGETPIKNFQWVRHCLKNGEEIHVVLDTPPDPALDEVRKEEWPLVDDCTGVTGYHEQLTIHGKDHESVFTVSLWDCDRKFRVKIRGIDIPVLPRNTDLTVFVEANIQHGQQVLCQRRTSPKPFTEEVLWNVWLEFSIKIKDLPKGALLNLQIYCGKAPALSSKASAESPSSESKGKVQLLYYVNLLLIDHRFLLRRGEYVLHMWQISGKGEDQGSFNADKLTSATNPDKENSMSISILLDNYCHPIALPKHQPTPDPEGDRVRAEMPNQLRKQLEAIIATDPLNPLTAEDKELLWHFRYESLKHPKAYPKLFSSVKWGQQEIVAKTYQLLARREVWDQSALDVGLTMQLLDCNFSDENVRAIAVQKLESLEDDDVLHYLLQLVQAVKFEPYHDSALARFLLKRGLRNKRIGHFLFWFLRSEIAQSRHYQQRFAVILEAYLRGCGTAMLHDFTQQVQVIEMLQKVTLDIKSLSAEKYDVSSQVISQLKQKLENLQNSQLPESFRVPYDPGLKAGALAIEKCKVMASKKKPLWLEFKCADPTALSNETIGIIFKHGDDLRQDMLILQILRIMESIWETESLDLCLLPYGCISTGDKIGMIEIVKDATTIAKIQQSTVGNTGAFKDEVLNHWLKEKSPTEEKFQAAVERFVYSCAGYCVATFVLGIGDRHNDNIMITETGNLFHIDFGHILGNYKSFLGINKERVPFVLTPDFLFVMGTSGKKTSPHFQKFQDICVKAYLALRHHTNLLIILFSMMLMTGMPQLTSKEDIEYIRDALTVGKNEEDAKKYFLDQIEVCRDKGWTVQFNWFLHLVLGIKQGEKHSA
Test: Inhibition of PI3Kgamma using ATP as substrate
assay-metric: IC50

Exercise: Input Cn1c2c(c3ccc(Cl)c(Cl)c31)C(C#N)C1(CCNCC1)NC2=O (racemic) , output reported IC50.
Key: 3.1 µM

---

Biological target: Serine/threonine-protein kinase 17A (Homo sapiens) (UniProt Q9UEE5)
Sequence (whole entry): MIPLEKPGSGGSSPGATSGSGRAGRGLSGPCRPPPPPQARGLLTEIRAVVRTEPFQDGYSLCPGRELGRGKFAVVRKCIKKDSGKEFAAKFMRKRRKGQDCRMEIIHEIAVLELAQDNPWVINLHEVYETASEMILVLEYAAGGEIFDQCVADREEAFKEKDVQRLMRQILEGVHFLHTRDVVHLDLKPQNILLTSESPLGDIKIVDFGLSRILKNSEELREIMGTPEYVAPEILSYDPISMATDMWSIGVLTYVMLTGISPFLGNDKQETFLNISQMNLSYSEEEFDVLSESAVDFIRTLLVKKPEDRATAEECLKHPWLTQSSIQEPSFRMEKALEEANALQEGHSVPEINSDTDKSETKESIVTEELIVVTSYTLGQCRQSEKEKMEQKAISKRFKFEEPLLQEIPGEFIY
Assay: Binding affinity to DRAK1 assessed as change in thermal denaturation at 10 uM by thermal stability shift assay
Label 1.0 when ΔTm >= 3 °C; otherwise 0.0.

Cn1c2c(c3ccc(Cl)c(Cl)c31)C(C#N)C1(CCN(C(=O)OC(C)(C)C)CC1)NC2=O (racemic) | 0.0
Cn1c2c(Cl)c(Cl)ccc2c2cc(N)[nH]c(=O)c21 | 1.0
CN1CCC2(CC1)NC(=O)c1c(c3ccc(Cl)c(Cl)c3n1C)C2C#N (racemic) | 0.0

Exercise: Threshold query (ΔTm >= 3 °C) on Cn1c2c(c3ccccc31)C(C#N)C(C)(C)NC2=O (stereo not given)
Key: 0.0

Exercise: Is reported ΔTm greater than or equal to 3 °C here: Cn1c2c(c3ccc(Cl)c(Cl)c31)C(C#N)C1(CCOCC1)NC2=O (stereo not given)
Key: 0.0

Exercise: Entry Cn1c2c(Cl)c(Cl)ccc2c2cc[nH]c(=O)c21 : is its ΔTm no less than 3 °C?
Key: 1.0

Exercise: Please check the record Cn1c2c(c3ccc(Cl)c(Cl)c31)C(C#N)C(C)(C)NC2=O (stereo not given) and state if its ΔTm is at or above 3 °C.
Key: 1.0

Exercise: Is it the case that CCC1(CC)NC(=O)c2c(c3ccc(Cl)c(Cl)c3n2C)C1C#N (stereo not given) has ΔTm reaching or exceeding 3 °C?
Key: 0.0

---

Molecular target: Phosphatidylinositol 4,5-bisphosphate 3-kinase catalytic subunit delta isoform (Homo sapiens, UniProt O00329)
Sequence (O00329 whole entry, canonical isoform): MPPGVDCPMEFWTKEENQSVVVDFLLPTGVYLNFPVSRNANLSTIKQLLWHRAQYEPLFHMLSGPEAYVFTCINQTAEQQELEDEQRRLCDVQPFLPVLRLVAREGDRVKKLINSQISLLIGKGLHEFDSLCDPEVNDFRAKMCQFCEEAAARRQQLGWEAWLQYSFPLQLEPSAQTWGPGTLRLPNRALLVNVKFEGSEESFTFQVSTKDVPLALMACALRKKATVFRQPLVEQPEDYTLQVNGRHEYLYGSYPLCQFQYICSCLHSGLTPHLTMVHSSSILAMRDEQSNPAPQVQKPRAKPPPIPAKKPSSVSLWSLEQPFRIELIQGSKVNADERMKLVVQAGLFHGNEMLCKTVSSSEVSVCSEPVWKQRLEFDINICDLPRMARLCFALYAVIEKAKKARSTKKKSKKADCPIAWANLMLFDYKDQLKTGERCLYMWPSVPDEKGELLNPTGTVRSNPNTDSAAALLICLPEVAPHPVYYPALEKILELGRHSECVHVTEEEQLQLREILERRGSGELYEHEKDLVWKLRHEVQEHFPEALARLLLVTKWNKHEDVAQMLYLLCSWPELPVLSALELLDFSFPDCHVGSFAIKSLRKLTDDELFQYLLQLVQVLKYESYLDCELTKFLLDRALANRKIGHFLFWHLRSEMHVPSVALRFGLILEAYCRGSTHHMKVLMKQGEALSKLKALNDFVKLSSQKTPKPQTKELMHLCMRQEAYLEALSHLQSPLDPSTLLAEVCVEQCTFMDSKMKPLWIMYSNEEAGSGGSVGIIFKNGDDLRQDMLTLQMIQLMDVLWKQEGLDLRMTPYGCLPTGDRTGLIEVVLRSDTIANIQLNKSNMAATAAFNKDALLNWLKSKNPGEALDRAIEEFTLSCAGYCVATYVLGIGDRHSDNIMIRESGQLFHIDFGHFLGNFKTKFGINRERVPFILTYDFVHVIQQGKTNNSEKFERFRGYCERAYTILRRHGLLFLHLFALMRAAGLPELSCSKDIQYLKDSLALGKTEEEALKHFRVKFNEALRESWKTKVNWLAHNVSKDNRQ
Assay: Inhibition of PI3Kdelta using ATP as substrate
assay-metric: pIC50
Quick note: pIC50 values are minus log10 of concentrations in mol/L.

Exercise: Give recorded pIC50. Cn1c2c(c3ccc(Cl)c(Cl)c31)C(C#N)C1(CCNCC1)NC2=O (racemic)
Key: 5.33

---

Biological target: Death-associated protein kinase 3 (Homo sapiens)
Assay: Binding affinity to N-terminus His6-tagged DAPK3 expressed in Escherichia coli BL21 (DE3) cells coexpressing pCOEX assessed as change in thermal denaturation at 10 uM by thermal stability shift assay
assay-metric: ΔTm

Some entries whose results are on file:
Cn1c2c(c3ccc(Cl)c(Cl)c31)C(C#N)C1(CCNCC1)NC2=O (racemic) | 10.6 °C
Cn1c2c(c3ccc(Cl)c(Cl)c31)C(C#N)C(C)(C)NC2=O (configuration not stated) | 3.4 °C
Cn1c2c(c3ccc(Cl)c(Cl)c31)C(C#N)C1(CCCC1)NC2=O (configuration not stated) | 1.5 °C
Cn1c2c(Cl)c(Cl)ccc2c2cc(N)[nH]c(=O)c21 | 2.6 °C
CC1(C)NC(=O)c2[nH]c3c(Cl)c(Cl)ccc3c2C1C#N (configuration not stated) | 2 °C
Cn1c2c(c3ccc(Cl)c(Cl)c31)C(C#N)C1(CCOCC1)NC2=O (configuration not stated) | 3.1 °C
Cn1c2c(Cl)c(Cl)ccc2c2cc[nH]c(=O)c21 | 3.4 °C
Cn1c2c(c3ccc(Cl)c(Cl)c31)C(CN)C(C)(C)NC2=O (racemic) | 3.6 °C
CCN1CCC2(CC1)NC(=O)c1c(c3ccc(Cl)c(Cl)c3n1C)C2C#N (racemic) | 4.6 °C
Cn1c2c(Cl)c(Cl)ccc2c2cn[nH]c(=O)c21 | 4 °C

Exercise: Kindly indicate its recorded ΔTm. Item: Cn1c2c(c3ccc(Cl)c(Cl)c31)C(C#N)C1(CCN(C(=O)OC(C)(C)C)CC1)NC2=O (racemic)
Key: -0.2 °C

Exercise: Query ΔTm for Cn1c2c(c3ccccc31)C(C#N)C(C)(C)NC2=O (configuration not stated)
Key: 0.6 °C

---

Biological target: Serine/threonine-protein kinase pim-1 (Homo sapiens)
Sequence (P11309 whole entry, looked up): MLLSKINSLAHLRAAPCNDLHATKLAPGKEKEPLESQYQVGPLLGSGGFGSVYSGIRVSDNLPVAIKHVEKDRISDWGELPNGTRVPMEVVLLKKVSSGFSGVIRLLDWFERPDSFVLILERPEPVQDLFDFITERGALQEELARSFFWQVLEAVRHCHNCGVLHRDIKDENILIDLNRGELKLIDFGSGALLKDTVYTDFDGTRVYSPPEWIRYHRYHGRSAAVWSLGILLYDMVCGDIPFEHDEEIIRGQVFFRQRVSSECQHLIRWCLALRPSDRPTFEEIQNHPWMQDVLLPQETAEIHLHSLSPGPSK
Experiment: Binding affinity to PIM1 assessed as change in thermal denaturation at 10 uM by thermal stability shift assay
List of ΔTm values.
Provide only the numeric value, understood in °C.

Exercise: Look up and state reported ΔTm for Cn1c2c(c3ccc(Cl)c(Cl)c31)C(C#N)C1(CCNCC1)NC2=O (racemic)
Key: 10.7

Exercise: Item CCN1CCC2(CC1)NC(=O)c1c(c3ccc(Cl)c(Cl)c3n1C)C2C#N (racemic) : provide ΔTm
Key: 7.4

Exercise: Note down ΔTm recorded for Cn1c2c(Cl)c(Cl)ccc2c2cc[nH]c(=O)c21
Key: 4

Exercise: Given Cn1c2c(c3ccc(Cl)c(Cl)c31)C(C#N)C(C)(C)NC2=O (stereo not given) , respond with its ΔTm.
Key: 5.7

Exercise: Tell me ΔTm reported for Cn1c2c(c3ccc(Cl)c(Cl)c31)C(CN)C(C)(C)NC2=O (racemic)
Key: 3.6

Exercise: Could you please provide reported ΔTm for Cn1c2c(c3ccccc31)C(C#N)C(C)(C)NC2=O (stereo not given) ? Thanks!
Key: 0.9

Exercise: Note ΔTm for the compound shown: CC(=O)NCC1c2c(n(C)c3c(Cl)c(Cl)ccc23)C(=O)NC1(C)C (racemic)
Key: 1.1

Exercise: Please look at this compound and report its ΔTm: Cn1c2c(c3ccc(Cl)c(Cl)c31)C(C#N)C1(CCOCC1)NC2=O (stereo not given)
Key: 4.8

Exercise: Please indicate ΔTm recorded for Cn1c2c(Cl)c(Cl)ccc2c2cn[nH]c(=O)c21
Key: 1.6

Exercise: Supply measured ΔTm of CN1CCC2(CC1)NC(=O)c1c(c3ccc(Cl)c(Cl)c3n1C)C2C#N (racemic) in your reply.
Key: 7.7
